Recorded measurements of OD492, one per entry
# System Tested: T1, HCV Core1-169 (HCV-1, UniProt P26664 1-169)
# T1 construct: also called Solid Phase HCV Core
# T1 sequence: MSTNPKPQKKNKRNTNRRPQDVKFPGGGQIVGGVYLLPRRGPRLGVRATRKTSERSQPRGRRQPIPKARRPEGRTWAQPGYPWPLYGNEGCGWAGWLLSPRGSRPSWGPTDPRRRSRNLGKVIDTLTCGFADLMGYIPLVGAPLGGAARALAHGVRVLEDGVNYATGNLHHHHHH
# Assay Text: sandwich EIA, capture 208A-207-271
State the result as a value with its unit after it.

binder="HCV 208B-1096 (antibody, V domains shown) VH: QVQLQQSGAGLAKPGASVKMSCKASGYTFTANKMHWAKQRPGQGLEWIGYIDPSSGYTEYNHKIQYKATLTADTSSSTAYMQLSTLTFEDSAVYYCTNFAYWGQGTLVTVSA VL: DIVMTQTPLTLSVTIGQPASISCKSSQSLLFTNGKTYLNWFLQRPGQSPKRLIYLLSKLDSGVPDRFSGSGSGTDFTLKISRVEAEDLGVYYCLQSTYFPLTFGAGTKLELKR" data_value="0.18 OD"

Give recorded OD492. HCV 208A-293 (antibody, V domains shown) VH: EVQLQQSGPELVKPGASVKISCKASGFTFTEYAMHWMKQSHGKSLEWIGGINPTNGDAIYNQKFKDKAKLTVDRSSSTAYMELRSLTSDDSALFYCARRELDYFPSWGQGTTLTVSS VL: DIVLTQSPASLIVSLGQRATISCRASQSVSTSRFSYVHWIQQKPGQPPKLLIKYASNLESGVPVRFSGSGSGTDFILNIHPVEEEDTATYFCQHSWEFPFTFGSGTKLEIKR
0.39 OD

Identify measured OD492 associated with HCV 208A-692 (antibody, V domains shown) VH: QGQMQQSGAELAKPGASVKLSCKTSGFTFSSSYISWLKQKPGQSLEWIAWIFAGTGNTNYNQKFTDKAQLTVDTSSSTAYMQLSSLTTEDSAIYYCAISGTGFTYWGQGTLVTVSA VL: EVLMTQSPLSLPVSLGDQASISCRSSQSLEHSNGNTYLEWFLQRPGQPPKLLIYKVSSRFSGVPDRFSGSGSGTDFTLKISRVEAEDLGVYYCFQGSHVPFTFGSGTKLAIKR
0.39 OD
